Entries annotated with measured inhibition at 1000 µM
experimentalTarget: DDAH (Rattus norvegicus, UniProt O08557)
Construct: Rat kidney was homogenized in PBS; from tissue; host or cells: rat kidney homogenate, high-speed supernatant
Sequence (O08557 2-285 limits assumed): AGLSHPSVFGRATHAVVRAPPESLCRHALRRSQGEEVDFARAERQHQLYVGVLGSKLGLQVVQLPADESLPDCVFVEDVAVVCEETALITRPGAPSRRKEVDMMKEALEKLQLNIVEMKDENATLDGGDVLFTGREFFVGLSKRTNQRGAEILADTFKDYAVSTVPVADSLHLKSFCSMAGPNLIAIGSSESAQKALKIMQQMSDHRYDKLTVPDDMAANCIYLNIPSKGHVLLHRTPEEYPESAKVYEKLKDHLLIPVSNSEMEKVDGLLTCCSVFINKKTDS
experiment: DDAH activity assay (rat kidney lysate, [14C]L-NMMA to [14C]citrulline)
Type: biochemical
protocolConditions: 1 mM compound, [14C]L-NMMA 1 μmol/L, 1 h 37° C.
Experimental: Rat kidney was homogenized in PBS containing PMSF 1 mM, leupeptin 5 μg/ml, pepstatin 5 μg/ml, chymostatin 5 μg/ml, and the lysate was centrifuged (4000 rpm. 20 min then supernatant further centrifuged for 40000 rpm, 30 min, 4° C.). The supernatants were analyzed for DDAH activity; [^14[…]) was added to the cell lysates (final volume 100 μl) and incubated for 1 h at 37° C. […] [^14C]Citrulline formation was determined by scintillation counting (Hewlett Packard).
Numbers only here, please. The scale is %.

Observe how each entry below is paired with its result.
# compound, resultUnits, inhibition at 1000 µM
measured = [
    ("C=CCN=C(N)NCC[C@H](N)C(=O)O [Example 14]", "%", 70),
    ("COCCN=C(N)NCCCC(N)C(=O)O [Example 21, N^G-(2-methoxyethyl)-L-arginine]", "%", 100),
    ("COCCN=C(N)NCC[C@H](N)C(=O)OC [Example 22]", "%", 75),
]

# compound CCCCOC(=O)[C@@H](N)CCNC(N)=NCCOC [Example 25] ; its inhibition at 1000 µM = 40

# compound NC(=Nc1ccccc1)NCC[C@H](N)C(=O)O [Example 5] ; its inhibition at 1000 µM = 65

# compound N=C(NCC[C@H](N)C(=O)O)N1CCCC1 [Example 16] ; its inhibition at 1000 µM = 79

----------
experimentalTarget: iNOS (Mus musculus, UniProt P29477)
Construct: endogenous in cells; host or cells: RAW cells stimulated with LPS/IFN and TNF
experiment: iNOS activity Greiss assay in stimulated RAW cells
Type: cell-based
protocolConditions: Griess NOx, RAW cells stimulated 24 h with LPS/IFN and TNF, compound 0.5 mM, 550 nm; control 0.367 ± 0.021
Entries annotated with measured OD units drug ± sd
Numbers only here, please. The scale is OD units.

# compound COCCN=C(N)NCC[C@H](N)C(=O)OCc1ccccc1 [Example 26] ; its OD units drug ± sd = 0.327

# compound CCCOC(=O)[C@@H](N)CCN(CCOC)C(=N)N [Example 24] ; its OD units drug ± sd = 0.351

# compound CNC(=N)NCCC[C@H](N)C(=O)O [L-NMMA, N^G monomethyl-L-arginine, reference compound] ; its OD units drug ± sd = 0.121

# compound COCCN=C(N)NCC[C@H](N)C(=O)OC [Example 22] ; its OD units drug ± sd = 0.329

# compound COCCN=C(N)NCCCC(N)C(=O)OC (stereo not shown) [Example 28] ; its OD units drug ± sd = 0.325

# compound CC(=N)NCCC[C@H](N)C(=O)O [NIO, L-N-5-(1-iminoethyl)ornithine, reference compound] ; its OD units drug ± sd = 0.103

# compound COCCN=C(N)NCCCC(N)C(=O)O [Example 21, N^G-(2-methoxyethyl)-L-arginine] ; its OD units drug ± sd = 0.326

----------
experimentalTarget: DDAH (Rattus norvegicus, UniProt O08557)
Construct: Rat kidney was homogenized in PBS; from tissue; host or cells: rat kidney homogenate, high-speed supernatant
experiment: DDAH activity assay (rat kidney lysate, [14C]L-NMMA to [14C]citrulline)
Assay type: biochemical
protocolConditions: 100 μM compound
Entries annotated with measured inhibition at 100 µM
Numbers only here, please. The scale is %.

# compound COCCN=C(N)NCC[C@H](N)C(=O)OCc1cccc(F)c1 [Example 40] ; its inhibition at 100 µM = 33.2

----------
experimentalTarget: DDAH (Rattus norvegicus)
Construct: Rat kidney was homogenized in PBS; from tissue; host or cells: rat kidney homogenate, high-speed supernatant
experiment: DDAH activity assay (rat kidney lysate, [14C]L-NMMA to [14C]citrulline)
Format: biochemical
protocolConditions: 1 mM compound, [14C]L-NMMA 1 μmol/L, 1 h 37° C.
measurementName: Inhibition at 1 mM, %
Your reply should be a number followed by the unit it is expressed in.

# compound CN(C)CCN=C(N)NCC[C@H](N)C(=O)O [Example 9] ; its Inhibition at 1 mM, % = 25%

# compound CCCOC(=O)[C@@H](N)CCN(CCOC)C(=N)N [Example 24] ; its Inhibition at 1 mM, % = 64%

# compound NC(=NCc1cccs1)NCC[C@H](N)C(=O)O ; its Inhibition at 1 mM, % = 34%

# compound CC(C)(C)CN=C(N)NCC[C@H](N)C(=O)O [Example 10] ; its Inhibition at 1 mM, % = 19%

----------
experimentalTarget: DDAH (Rattus norvegicus, UniProt O08557)
Construct: Rat kidney was homogenized in PBS; from tissue; host or cells: rat kidney homogenate, high-speed supernatant
experiment: DDAH activity assay (rat kidney lysate, [14C]L-NMMA to [14C]citrulline)
Type: biochemical
protocolConditions: 1 mM compound, [14C]L-NMMA 1 μmol/L, 1 h 37° C.
Grouping rule (inhibition at 1000 µM): b0 (below 40%), b1 (40% to below 70%), b2 (70% or more)

The examples below pair each entry with its known result.
# compound, classLabel
data = [
    ("NC(=NCCOc1ccccc1)NCC[C@H](N)C(=O)O", "b0"),
    ("CSCCN=C(N)NCC[C@H](N)C(=O)O", "b0"),
    ("NC(=NC1CC1)NCC[C@H](N)C(=O)O", "b1"),
    ("CC(C)OCCN=C(N)NCC[C@H](N)C(=O)O", "b2"),
    ("NC(=NC1CCCCC1)NCC[C@H](N)C(=O)O", "b1"),
]

The entry to classify is N=C(NCC[C@H](N)C(=O)O)N1CCCCC1 ; which class holds it? b2

The entry to classify is COCCN=C(N)NCC[C@H](N)C(=O)OCc1ccccc1 ; which class holds it? b2

The entry to classify is CC(C)N=C(N)NCC[C@H](N)C(=O)O ; which class holds it? b0

The entry to classify is N=C(NCC[C@H](N)C(=O)O)N1CCOCC1 ; which class holds it? b1

The entry to classify is CCOC(=O)[C@@H](N)CCNC(N)=NCCOC ; which class holds it? b1

The entry to classify is NC(=NCc1ccccc1)NCC[C@H](N)C(=O)O ; which class holds it? b0

The entry to classify is CCCCCCCCN=C(N)NCC[C@H](N)C(=O)O ; which class holds it? b0

The entry to classify is COCCN=C(N)NCC[C@H](N)C(=O)O ; which class holds it? b2

The entry to classify is COCCN=C(N)NCCCC(N)C(=O)OC (stereo not drawn) ; which class holds it? b2

----------
experimentalTarget: DDAH (Rattus norvegicus, UniProt O08557)
Construct: Rat kidney was homogenized in PBS; from tissue; host or cells: rat kidney homogenate, high-speed supernatant
experiment: DDAH activity assay (rat kidney lysate, [14C]L-NMMA to [14C]citrulline)
Format: biochemical
protocolConditions: 100 μM compound
Decision: inhibition at 100 µM >= 50% yields Condition met, all other cases yield Condition not met.

The examples below pair each entry with its known result.
# compoundString, classLabel
records = [
    ("COCCN=C(N)NCC[C@H](N)C(=O)OCCOC", "Condition met"),
    ("COCCN=C(N)NCC[C@H](N)C(=O)OCc1ccccc1F", "Condition not met"),
    ("COCCN=C(N)NCC[C@H](N)C(=O)OCc1cccc(Oc2ccccc2)c1", "Condition not met"),
]

Quick check: does COCCN=C(N)NCC[C@H](N)C(=O)OCc1cccc(C(F)(F)F)c1 have inhibition at 100 µM greater than or equal to 50%? Condition not met

Quick check: does COCCN=C(N)NCC[C@H](N)C(=O)OCc1ccccc1OC have inhibition at 100 µM greater than or equal to 50%? Condition not met

Quick check: does COCCN=C(N)NCC[C@H](N)C(=O)OCc1ccc(OC)cc1 have inhibition at 100 µM greater than or equal to 50%? Condition not met

This collection of values is drawn from patent US8063104B2.
